- PROTOCOL SUMMARY: isobaric coefficient of expansion
- RUN PARAMETERS: 318.15 K; 5000 kPa; Liquid; Micro DSCII
QUANTITY KIND: isobaric coefficient of expansion

[
  {
    "MOLECULE": "CCCCn1cc[n+](C)c1.O=S(=O)([O-])C(F)(F)F [1-butyl-3-methylimidazolium trifluoromethanesulfonate]",
    "QUANTITY KIND": "isobaric coefficient of expansion",
    "RESULT": "0.0006 1/K"
  },
  {
    "MOLECULE": "CCCC[n+]1ccn(C)c1.O=S(=O)([N-]S(=O)(=O)C(F)(F)F)C(F)(F)F",
    "QUANTITY KIND": "isobaric coefficient of expansion",
    "RESULT": "0.00065 1/K"
  },
  {
    "MOLECULE": "CCCCn1cc[n+](C)c1.COS(=O)(=O)[O-] [1-butyl-3-methylimidazolium methyl sulfate]",
    "QUANTITY KIND": "isobaric coefficient of expansion",
    "RESULT": "0.000538 1/K"
  },
  {
    "MOLECULE": "CCCCn1cc[n+](C)c1.F[B-](F)(F)F [1-butyl-3-methylimidazolium tetrafluoroborate]",
    "QUANTITY KIND": "isobaric coefficient of expansion",
    "RESULT": "0.00058 1/K"
  },
  {
    "MOLECULE": "CCCCn1cc[n+](C)c1.[F][Sb-]([F])([F])([F])([F])[F] [1-butyl-3-methylimidazolium hexafluoroantimonate]",
    "QUANTITY KIND": "isobaric coefficient of expansion",
    "RESULT": "0.000612 1/K"
  }
]

###

- PROTOCOL SUMMARY: isobaric coefficient of expansion
- RUN PARAMETERS: 318.15 K; 50000 kPa; Liquid; Micro DSCII
# isobaric coefficient of expansion values compiled below

[
  {
    "COMPOUND": "CCCCn1cc[n+](C)c1.COS(=O)(=O)[O-] [1-butyl-3-methylimidazolium methyl sulfate]",
    "isobaric coefficient of expansion": "0.000494 1/K"
  },
  {
    "COMPOUND": "CCCCn1cc[n+](C)c1.O=S(=O)([O-])C(F)(F)F [1-butyl-3-methylimidazolium trifluoromethanesulfonate]",
    "isobaric coefficient of expansion": "0.000539 1/K"
  },
  {
    "COMPOUND": "CCCCn1cc[n+](C)c1.F[B-](F)(F)F [1-butyl-3-methylimidazolium tetrafluoroborate]",
    "isobaric coefficient of expansion": "0.000532 1/K"
  },
  {
    "COMPOUND": "CCCC[n+]1ccn(C)c1.O=S(=O)([N-]S(=O)(=O)C(F)(F)F)C(F)(F)F",
    "isobaric coefficient of expansion": "0.000573 1/K"
  },
  {
    "COMPOUND": "CCCCn1cc[n+](C)c1.[F][Sb-]([F])([F])([F])([F])[F] [1-butyl-3-methylimidazolium hexafluoroantimonate]",
    "isobaric coefficient of expansion": "0.00055 1/K"
  }
]

###

- PROTOCOL SUMMARY: isobaric coefficient of expansion
- RUN PARAMETERS: 328.15 K; 50000 kPa; Liquid; Micro DSCII
# isobaric coefficient of expansion values compiled below

[
  {
    "COMPOUND": "CCCCn1cc[n+](C)c1.COS(=O)(=O)[O-] [1-butyl-3-methylimidazolium methyl sulfate]",
    "isobaric coefficient of expansion": "0.000489 1/K"
  },
  {
    "COMPOUND": "CCCC[n+]1ccn(C)c1.O=S(=O)([N-]S(=O)(=O)C(F)(F)F)C(F)(F)F",
    "isobaric coefficient of expansion": "0.000569 1/K"
  },
  {
    "COMPOUND": "CCCCn1cc[n+](C)c1.[F][Sb-]([F])([F])([F])([F])[F] [1-butyl-3-methylimidazolium hexafluoroantimonate]",
    "isobaric coefficient of expansion": "0.000547 1/K"
  },
  {
    "COMPOUND": "CCCCn1cc[n+](C)c1.O=S(=O)([O-])C(F)(F)F [1-butyl-3-methylimidazolium trifluoromethanesulfonate]",
    "isobaric coefficient of expansion": "0.000534 1/K"
  },
  {
    "COMPOUND": "CCCCn1cc[n+](C)c1.F[B-](F)(F)F [1-butyl-3-methylimidazolium tetrafluoroborate]",
    "isobaric coefficient of expansion": "0.000523 1/K"
  }
]
